Values were extracted from the OPERA property sets (Mansouri et al. 2018).

Parameter: log10 vapour pressure (mmHg). Scope: all listed entries.

# compound, log10 vapour pressure (mmHg)
data = [
    ("CCOC(=O)[C@H](C)Cl", 0.557),
    ("C=C(Cl)C(Cl)CCl (stereo unspecified)", 0.274),
    ("C=CCCCCCCCCCCCCCCCCCC", -4.98),
    ("O=C(Oc1ccccc1)Oc1ccccc1", -3.82),
    ("CCCCCCCCCCCCCCCl", -3.14),
    ("Brc1ccc(-c2ccccc2)cc1", -2.63),
    ("Cc1cncc(C)c1", 0.239),
    ("CCCC=C(C=O)CC", 0.107),
    ("CC=CC#N", 1.5),
    ("C=C[Si](OCC)(OCC)OCC", 0.358),
    ("CCCCCCCCCCCCCCCCCCCCCC", -5.89),
    ("CC(C)OC(=O)C(O)(c1ccc(Br)cc1)c1ccc(Br)cc1", -7.09),
    ("O=C(CCl)OC(=O)CCl", -1.43),
    ("CCC(C)C(C)(C)CC (stereo unspecified)", 0.948),
    ("CC(C)(N=C=O)c1ccc(C(C)(C)N=C=O)cc1", -3.12),
    ("CCOC(=O)C1(C)OC(=O)N(c2cc(Cl)cc(Cl)c2)C1=O (stereo unspecified)", -7.02),
]

* * *

Parameter: melting point. Scope: all listed entries.
measured endpoint: melting point

# molecule, measured endpoint, observed measurement
records = [
    ("CN1C(=O)C(O)N=C(c2ccccc2Cl)c2cc(Cl)ccc21 (stereo not drawn)", "melting point", "206 °C"),
    ("CCCCCCCCCCCCOC(=O)CCSCCC(=O)OCCCCCCCCCCCC", "melting point", "41 °C"),
    ("CCC(=O)c1ccc2c(c1)N(CCCN(C)C)c1ccccc1S2", "melting point", "69.5 °C"),
    ("CCCSC", "melting point", "-113 °C"),
    ("O=C(Nc1ccc(O)cc1)c1ccccc1O", "melting point", "179 °C"),
    ("Nc1ccccc1[N+](=O)[O-]", "melting point", "71 °C"),
    ("O=Cc1cc(Br)cc(Br)c1O", "melting point", "86 °C"),
    ("CCCCCCCCCCCCCCCCCC1CCCCC1", "melting point", "38 °C"),
    ("OCc1cccc(CO)c1", "melting point", "57 °C"),
    ("CCN(CC)CCNC(=O)c1cc(S(C)(=O)=O)ccc1OC", "melting point", "124 °C"),
    ("C=Cc1cccc(CC)c1", "melting point", "-101 °C"),
    ("N#Cc1ccccc1Br", "melting point", "55.5 °C"),
    ("CCOc1ccc(NC(=O)CC(C)O)cc1 (stereo not drawn)", "melting point", "160 °C"),
    ("Nc1cccc2nsnc12", "melting point", "68 °C"),
    ("Nc1cccc(S(=O)(=O)c2cccc(N)c2)c1", "melting point", "172 °C"),
    ("Brc1cncc2ccccc12", "melting point", "41.5 °C"),
    ("CC(C)CCCl", "melting point", "-104 °C"),
    ("Nc1ccc2c(c1)Cc1cc(N)ccc1-2", "melting point", "166 °C"),
    ("NS(=O)(=O)c1cc(C(=O)O)ccc1Cl", "melting point", "257 °C"),
    ("CCCCCCNC(=O)C=Cc1ccc(O)c(O)c1", "melting point", "142 °C"),
    ("N#CC(=O)c1ccccc1", "melting point", "32.5 °C"),
    ("C[C@@]12C(=O)OC(=O)[C@]1(C)C1CCC2O1", "melting point", "218 °C"),
    ("CC(Br)C(C)Br (stereo not drawn)", "melting point", "-24 °C"),
    ("CCCCCCCCCCCCCCCCCC(=O)OCCOC(=O)CCCCCCCCCCCCCCCCC", "melting point", "79 °C"),
    ("C=C1CC[C@@]2(O)[C@H]3Cc4ccc(O)c5c4[C@@]2(CCN3CC2CC2)[C@H]1O5", "melting point", "189 °C"),
    ("CC(C)OC(=O)C1(S(=O)(=O)c2ccc([N+](=O)[O-])cc2)CC1", "melting point", "123 °C"),
    ("FC(F)(F)C(F)(F)C(F)(F)C(F)(F)C(F)(F)C(F)(F)OC(F)(F)C(F)(F)C(F)(F)C(F)(F)C(F)(F)C(F)(F)F", "melting point", "-90 °C"),
    ("C[C@]1(C(=O)O)CCC[C@]2(C)c3cc(O)ccc3CC[C@@H]12", "melting point", "194 °C"),
]
